Hey, just so you know, these numbers are from PubChem BioAssay (NCI).

System: MDA-MB-468 breast
Assay: NCI-60 one-dose screen, 48 h
Settings: 10 µM unless noted
About 83,000 compounds went through this panel and 20% of them were active in at least one assay; those are over-represented in the sample as a whole. The source made the active and inactive calls. The calls were made as follows: active = growth percent below 10; inactive = the rest.
Could you please pick one outcome from this set? active, inactive

Known results for compounds:
compound | assigned.label
COc1ccc(/C=C/c2c(C(=O)/C=C/c3ccc(C(F)(F)F)cc3)c(C)nc3ccccc23)cc1 | active
NS(=O)(=O)c1nnc(/N=C/c2c(O)[nH]c3ccccc23)s1 | inactive
[O-]/[N+](=C\c1ccc(-n2cc(Cc3ccccc3Cc3cn(-c4ccc(/C=[N+](/[O-])c5ccccc5)cc4)nn3)nn2)cc1)c1ccccc1 | inactive
COc1ccccc1NC(=O)Cn1cc(CN2CCN(c3ccnc4cc(Cl)ccc34)CC2)nn1 | inactive
CN(C)c1cnccn1 | inactive

Problem: // return assay outcome for CCNC(=O)Nc1nc2ccc(Oc3ccnc(C(=O)NC)c3)cc2s1
Result: inactive

Problem: // return assay outcome for CCCCCCCC/C=C\CCCCCCCCOc1ccc(CC(=O)NCC[N+]2(C)CCOCC2)cc1
Result: inactive

Problem: // return assay outcome for CC(C)C(=O)Nc1n[nH]c2cc(-c3cccc(NS(=O)(=O)C4CC4)c3)ccc12
Result: inactive

Problem: // return assay outcome for O=C(Nc1cc(Cl)ccc1O)c1ccccc1Nc1ccnc(C(F)(F)F)c1
Result: inactive

Problem: // return assay outcome for C/C=C(\C)C(C(=O)NC1CCCCC1)N(C(=O)C1CCc2cc(F)ccc2O1)c1ccc([N+](=O)[O-])cc1 (centres undefined)
Result: inactive

Problem: // return assay outcome for O=C1CCC/C=C\C[C@H]2C=CC(=O)/C2=C/C[C@H](CCc2cccc(C(F)(F)F)c2)O1
Result: active

---

As shown below, each of these compounds has a reported growth value.
Test system: MDA-MB-468 breast
Assay: NCI-60 one-dose screen, 48 h (100 = growth as untreated, 0 = no growth, -100 = all killed)
Details: 10 µM unless noted
This is part of a sample that, as a whole, favours compounds with a hit. Of some 83,000 tested, about 20% had one in any assay.
Kindly answer with a numeric value in %, unit omitted.

Take a look at these entries with their results.
structure | experimental.system | attribute.measured | endpoint.result
C=CCn1c(=O)c2cnc(Nc3ccc(N4CCN(C)CC4)cc3)nc2n1-c1cccc(C(C)(C)O)n1 | MDA-MB-468 breast | growth | -0.604
COc1ccc2c(c1OC)C(=O)O[C@@H]2[C@H]1c2c(c(C#CC#Cc3ccc(F)c(F)c3)c3c(c2OC)OCO3)CCN1C | MDA-MB-468 breast | growth | 72.4
O=C(S)CNC(=O)c1ccccc1 | MDA-MB-468 breast | growth | 95.7
Cn1cc(-c2nn3c(=O)cc(-c4ccccc4)nc3s2)c2cc(F)ccc21 | MDA-MB-468 breast | growth | 38.9
O=C(O)c1cccc2c1Cc1cc([N+](=O)[O-])ccc1-2 | MDA-MB-468 breast | growth | 113

Here is the next item to consider.
Problem: Name the reported growth value associated with the compound C=CCn1c(SCC(=O)c2ccc(Br)cc2)nnc1-c1c[nH]c2ccccc12
Result: 86.9

---

System: MDA-MB-435 melanoma
Experiment: NCI-60 one-dose screen, 48 h (100 = growth as untreated, 0 = no growth, -100 = all killed)
Settings: 10 µM
Method: Growth inhibition of the MDA-MB-435 human Melanoma tumor cell line is measured as a screen for anti-cancer activity. Cells are grown in 96 well plates and exposed to the test compound for 48 hours. Compounds are tested at a single concentration, which is 10^-5 M for most compounds. The reported endpoint is percent growth (GI% or GIPRCNT), where numbers from 0 - 100% represent growth inhibition, and numbers from -100% - 0 represent cell death. […]
Compounds without any hit were thinned out: in the full panel of roughly 83,000, 20% have a hit.
# if value of growth reaches 10%, tag Criterion met; if it stays below, tag Criterion not met

compound | assigned.label
CCOC(=O)C1=C(N)N(c2ccc(C)cc2)C2=C(C(=O)CC(C)(C)C2)C1c1ccccc1Br (stereo unspecified) | Criterion met

Problem: Form field: growth at least 10%? Entry: COc1cccc(O)c1/C=C1\SCc2cc3c(OC)cccc3[o+]c21
Result: Criterion met

Problem: Form field: growth at least 10%? Entry: Cc1ccc2sc3c(c2c1)Oc1nc[nH]c(=O)c1C3c1cccc(F)c1 (stereo unspecified)
Result: Criterion met

Problem: Form field: growth at least 10%? Entry: O=C(CN1CCN(c2ncnc3c2cnn3-c2ccccc2)CC1)Nc1ccc(Br)cc1
Result: Criterion met

Problem: Form field: growth at least 10%? Entry: Cc1cc(N=C2NC(=O)S/C2=C\c2ccc(F)cc2)n[nH]1
Result: Criterion not met

Problem: Form field: growth at least 10%? Entry: O=C1S/C(=C\c2ccc([N+](=O)[O-])cc2)C(=O)N1CCN1CCCCC1
Result: Criterion met

---

Tested on: MDA-MB-468 breast
Experiment: NCI-60 one-dose screen, 48 h (100 = growth as untreated, 0 = no growth, -100 = all killed)
Conditions: 10 µM unless noted
Description: Growth inhibition of the MDA-MB-468 human Breast tumor cell line is measured as a screen for anti-cancer activity. Cells are grown in 96 well plates and exposed to the test compound for 48 hours. Compounds are tested at a single concentration, which is 10^-5 M for most compounds. The reported endpoint is percent growth (GI% or GIPRCNT), where numbers from 0 - 100% represent growth inhibition, and numbers from -100% - 0 represent cell death. […]
This is part of a sample that, as a whole, favours compounds with a hit. Of some 83,000 tested, about 20% had one in any assay.
# if value of growth reaches 90%, tag T; if it stays below, tag F

molecule | experimental.system | assigned.label
CC(C)C1CCC(C)C(C2(C#N)C(N)=NC(N)=C2C#N)C1=O (stereo unspecified) | MDA-MB-468 breast | T
Cc1nc2c(O)cccc2cc1CO | MDA-MB-468 breast | T
c1ccc(-c2oc3ccccc3c2-c2ccccc2)cc1 | MDA-MB-468 breast | T

Problem: Form field: growth at least 90%? Entry: CC(=O)OC[C@]12CC[C@H]3[C@@H](C[C@H]4O[C@]45CC=CC(=O)[C@]35C)[C@]1(O)CC[C@@]2(O)[C@@](C)(O)C1CC(C)=C(C)C(=O)O1 (stereo partly specified)
Result: F

Problem: Form field: growth at least 90%? Entry: COCCCNc1nc(NC(=O)c2cc(Br)cc(C(F)(F)F)c2)cc(-c2cccnc2)n1
Result: F

Problem: Form field: growth at least 90%? Entry: CC1(C)N=C(N)N=C(N)N1c1cccc(/C=C/C=C/c2cccc([N+](=O)[O-])c2)c1
Result: F

Problem: Form field: growth at least 90%? Entry: CN(C)CCN1C(=O)c2cccc3c(-c4ccc(-c5nc6c7ccccc7c7ccccc7c6[nH]5)cc4)ccc(c23)C1=O
Result: T

Problem: Form field: growth at least 90%? Entry: COc1ccc(-c2nc3sccn3c2-c2ccnc(NCCCNS(=O)(=O)c3ccc4ccccc4c3)n2)cc1
Result: F

Problem: Form field: growth at least 90%? Entry: COc1ccc(C2c3ccc4ccccc4c3Oc3ncn(CCCn4ccnc4)c(=N)c32)cc1OC (stereo unspecified)
Result: F

Problem: Form field: growth at least 90%? Entry: CCCCCCNCc1cc(C(C)(C)C)cc(CNCCCCCC)c1O
Result: F

Problem: Form field: growth at least 90%? Entry: CN(C)CCCOc1ccc(C(=C(c2ccccc2)C2CCCC2)c2ccc(OCCCN(C)C)cc2)cc1
Result: F

Problem: Form field: growth at least 90%? Entry: Cc1ccc(-c2cc3nc(-c4ccccc4)nc(C(Cl)Cl)n3n2)cc1
Result: F

Problem: Form field: growth at least 90%? Entry: COc1ccc(OC)c(C(=O)/C=C/c2cc3c(c(OC)c2OC)OCO3)c1
Result: F

Problem: Form field: growth at least 90%? Entry: COc1cc(C)ccc1Oc1nc(Nc2ccc(N3CCOCC3)cc2)ncc1NC(=O)Nc1cc(C(F)(F)F)cc(C(F)(F)F)c1
Result: F

Problem: Form field: growth at least 90%? Entry: COc1ccc(C(=O)c2sc3nc(-c4ccccc4OC)ccc3c2N)cc1OC
Result: F

Problem: Form field: growth at least 90%? Entry: CC(=O)OC(C)c1cccc(C#N)c1 (stereo unspecified)
Result: T

Problem: Form field: growth at least 90%? Entry: O=C(CCc1nnc2sc(-c3cc(O)c(O)c(O)c3)nn12)c1nc2ccccc2[nH]1
Result: F

Problem: Form field: growth at least 90%? Entry: O=C(Nc1cccc(-n2cc(-c3ccncc3)c(-c3cc(O)cc(Cl)c3)n2)c1)c1cc(C(F)(F)F)cc(C(F)(F)F)c1
Result: F

Problem: Form field: growth at least 90%? Entry: COC(=O)[C@]12CC[C@@H](C)[C@H](C)[C@@H]1C1=CC[C@@H]3[C@@]4(C)C/C(=N\O)[C@H](O)[C@@]5(C)COC(=C45)C[C@@]3(C)[C@]1(C)CC2
Result: F

Problem: Form field: growth at least 90%? Entry: O=S(=O)(NCCNc1cc(-c2c(-c3cccc(O)c3)nc3sccn23)ccn1)c1ccc(Br)cc1
Result: F

Problem: Form field: growth at least 90%? Entry: COC(=O)CCCCC1=CCC2C(=O)C=C(O)C2C1 (stereo unspecified)
Result: T
